B1: FCHSD1 (parent)
chain: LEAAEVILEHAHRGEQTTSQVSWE

Variants of: B1
Assay: protein stability index of a GFP-peptide fusion (GPS, HEK-293T) (PSI 1-6); higher = more stable;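 also: lentivirally expressed fusions sorted by FACS into six bins by GFP to DsRed ratio, PSI derived from sequencing read proportions per bin multiplied by bin number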
Conditions: c terminus: a fixed tail appended
# protein stability index per record follows
Lab note: write the figure by itself, no unit.

Recorded results for 3 variants are shown here.
[
  {
    "mut": "E24C",
    "protein stability index": 3.88
  },
  {
    "mut": "A4Y",
    "protein stability index": 2.48
  },
  {
    "mut": "W23A",
    "protein stability index": 5.32
  }
]

With those in mind, consider the next variant.
stdin: Any idea what its protein stability index is? The variant is R13M
stdout: 4.27
